# targetOrSystem: human ether-à-go-go-related gene (hERG) potassium channel (human, UniProt Q12809);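 also: peak tail current of the secondary pulse compared with the same well before compound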
# Sequence (Q12809 whole entry, looked up): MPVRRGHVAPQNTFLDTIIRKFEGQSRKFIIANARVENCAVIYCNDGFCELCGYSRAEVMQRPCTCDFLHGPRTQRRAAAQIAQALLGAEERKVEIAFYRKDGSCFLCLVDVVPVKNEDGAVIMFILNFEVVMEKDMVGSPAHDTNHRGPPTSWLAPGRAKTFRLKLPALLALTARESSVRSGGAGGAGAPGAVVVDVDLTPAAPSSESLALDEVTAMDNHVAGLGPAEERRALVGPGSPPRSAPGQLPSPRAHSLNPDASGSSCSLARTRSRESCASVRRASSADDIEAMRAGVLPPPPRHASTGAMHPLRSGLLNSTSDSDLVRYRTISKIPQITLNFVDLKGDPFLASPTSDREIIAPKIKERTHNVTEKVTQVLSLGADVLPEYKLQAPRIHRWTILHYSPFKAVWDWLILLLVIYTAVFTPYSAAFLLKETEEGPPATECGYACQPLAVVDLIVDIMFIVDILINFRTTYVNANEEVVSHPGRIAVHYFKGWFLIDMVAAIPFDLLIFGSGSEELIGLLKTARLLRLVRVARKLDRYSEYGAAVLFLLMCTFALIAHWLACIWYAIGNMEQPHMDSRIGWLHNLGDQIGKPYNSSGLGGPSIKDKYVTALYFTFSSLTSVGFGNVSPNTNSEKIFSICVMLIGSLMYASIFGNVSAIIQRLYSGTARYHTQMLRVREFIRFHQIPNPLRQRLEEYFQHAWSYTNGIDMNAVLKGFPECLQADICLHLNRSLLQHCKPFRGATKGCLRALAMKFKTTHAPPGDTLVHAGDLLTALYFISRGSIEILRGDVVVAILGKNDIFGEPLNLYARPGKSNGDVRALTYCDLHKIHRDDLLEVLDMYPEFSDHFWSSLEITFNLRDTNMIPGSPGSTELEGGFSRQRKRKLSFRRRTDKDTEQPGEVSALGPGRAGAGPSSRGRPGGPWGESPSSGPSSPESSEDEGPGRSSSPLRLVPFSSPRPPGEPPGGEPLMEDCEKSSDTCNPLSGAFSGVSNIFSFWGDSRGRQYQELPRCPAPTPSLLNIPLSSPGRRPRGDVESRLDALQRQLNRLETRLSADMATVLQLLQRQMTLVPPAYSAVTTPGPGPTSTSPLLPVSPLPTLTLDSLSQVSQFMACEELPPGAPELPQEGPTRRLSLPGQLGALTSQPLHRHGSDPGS
# procedureSummary: primary screen, population patch clamp on CHO cells stably expressing hERG; higher = less effect of the substance
# Experimental: Briefly, Chinese hamster ovary (CHO) cells stably expressing the hERG channel were dislodged from tissue culture flasks and dispensed into PPC plates. […] During the recording, background leak currents were estimated by a 100 ms step to -80 mV from an initial holding potential of -70 mV and subtracted from the subsequent current measurement. The campaign was conducted in two phases using slight differences in recording protocol. […]
Screen size: about 310,000 compounds; about 14,000 (4.5%) showed an effect of 50% or more. The effect is printed as a negative number. The full list was thinned out, with strong results kept by preference.
Label rule, in plain words: hERG current change (%, negative = inhibition) at 10uM of -30% and up is condition met, under -30% is condition not met.

Query block: Exam item: decide whether the reported hERG current change (%, negative = inhibition) at 10uM for CC(=O)c1cccc(NC(=O)CCCN(C)S(=O)(=O)c2ccc(F)cc2)c1 is at least -30%.
Result block: condition met

Query block: Threshold query (hERG current change (%, negative = inhibition) at 10uM >= -30%) on Cc1ccccc1N1CCN(C2CCCN(C(=O)c3ccccn3)C2)CC1 (centres unmarked)
Result block: condition met

Query block: Quick check: does CC(=O)Nc1ccc(S(=O)(=O)N(C)c2ccccc2)cc1 have hERG current change (%, negative = inhibition) at 10uM greater than or equal to -30%?
Result block: condition met

Query block: # bool: hERG current change (%, negative = inhibition) at 10uM of O=C(NCCCCCCNC(=O)OCCO)OCCO >= -30%
Result block: condition met

Query block: hERG current change (%, negative = inhibition) at 10uM >= -30% for CN(CCCC(=O)Nc1ccc(OC(F)F)cc1)S(=O)(=O)c1ccc(F)cc1 ?
Result block: condition not met

Query block: Given O=C(c1noc2c1CCCC2)N1CCCC(N2CCN(c3ccccc3F)CC2)C1 (centres unmarked) , state whether its hERG current change (%, negative = inhibition) at 10uM is at least -30%.
Result block: condition met

Query block: hey, is hERG current change (%, negative = inhibition) at 10uM for this one >= -30%? Cc1ccccc1N1CCN(C2CCCN(C(=O)c3cc(C(C)C)[nH]n3)C2)CC1 (centres unmarked)
Result block: condition not met

Query block: Say whether CC(=O)Nc1ccc(S(=O)(=O)N(C)S(=O)(=O)c2ccc(F)cc2)cc1 shows hERG current change (%, negative = inhibition) at 10uM of -30% or more.
Result block: condition not met

Query block: Determine whether measured hERG current change (%, negative = inhibition) at 10uM meets or exceeds -30% for Cc1c(CCC(=O)O)c(=O)oc2cc3occ(-c4ccc(Cl)cc4)c3cc12
Result block: condition met

Query block: Exam item: decide whether the reported hERG current change (%, negative = inhibition) at 10uM for Cc1ccccc1N1CCN(C2CCCN(C(=O)c3cn4c(C)cccc4n3)C2)CC1 (centres unmarked) is at least -30%.
Result block: condition not met

Query block: Form field: hERG current change (%, negative = inhibition) at 10uM at least -30%? Entry: CN(CC(=O)Nc1ccncc1)S(=O)(=O)c1ccc(Cl)cc1
Result block: condition met

Query block: Determine whether measured hERG current change (%, negative = inhibition) at 10uM meets or exceeds -30% for COc1ccc(-c2coc3cc(OC)cc(O)c3c2=O)cc1
Result block: condition met

Query block: Is the recorded value of hERG current change (%, negative = inhibition) at 10uM equal to or greater than -30% for this molecule? Cc1cc(C(=O)N2CCCC(N3CCN(c4ccccc4C)CC3)C2)nc(C)n1 (centres unmarked)
Result block: condition met

Query block: In plain terms: is recorded hERG current change (%, negative = inhibition) at 10uM at least -30% for Cc1ccccc1N1CCN(C2CCCN(C(=O)c3csc(C(C)C)n3)C2)CC1 (centres unmarked) ?
Result block: condition not met

Query block: Check this molecule for hERG current change (%, negative = inhibition) at 10uM at or above -30%: Cc1ccccc1N1CCN(C2CCCN(C(=O)c3cc(CC(C)C)nn3C)C2)CC1 (centres unmarked)
Result block: condition not met

Query block: Is it the case that Cc1ccc(S(=O)(=O)N(C)CC(=O)Nc2ccncc2)cc1 has hERG current change (%, negative = inhibition) at 10uM reaching or exceeding -30%?
Result block: condition met

Query block: hey, is hERG current change (%, negative = inhibition) at 10uM for this one >= -30%? CCCc1cc(C(=O)N2CCCC(N3CCN(c4ccccc4C)CC3)C2)n(C)n1 (centres unmarked)
Result block: condition not met

Query block: hey, is hERG current change (%, negative = inhibition) at 10uM for this one >= -30%? CC(=O)Nc1ccc(S(=O)(=O)N(C)c2ccc(O)cc2)cc1
Result block: condition met

Query block: Determine whether measured hERG current change (%, negative = inhibition) at 10uM meets or exceeds -30% for Cc1nc(C(=O)N2CCCC(N3CCN(c4ccccc4C)CC3)C2)cs1 (centres unmarked)
Result block: condition not met

---

# targetOrSystem: human ether-à-go-go-related gene (hERG) potassium channel (human, UniProt Q12809);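 also: peak tail current of the secondary pulse compared with the same well before compound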
# procedureSummary: primary screen, population patch clamp on CHO cells stably expressing hERG; higher = less effect of the substance
Hit rate of the full screen: of about 310,000 compounds, about 14,000 (4.5%) showed an effect of 50% or more. The effect is printed as a negative number. Shown is part of a subset that was picked to be rich in strong results.
Returns one of criterion met or criterion not met; criterion met when hERG current change (%, negative = inhibition) at 10uM is >= -40%.

Query block: hey, is hERG current change (%, negative = inhibition) at 10uM for this one >= -40%? O=C(CCCCCn1c(SCc2ccncc2)nc2ccccc2c1=O)NCc1ccco1
Result block: criterion not met

Query block: // inclusive: hERG current change (%, negative = inhibition) at 10uM at least -40%? input: O=C(Nc1c2c(nn1-c1ccccc1)CS(=O)C2)c1ccc(Br)o1 (stereo not drawn)
Result block: criterion met

Query block: Evaluate O=C(CCCCCn1c(SCC(=O)c2ccccc2)nc2ccccc2c1=O)NCc1ccco1 : hERG current change (%, negative = inhibition) at 10uM at minimum -40%?
Result block: criterion met

Query block: Check this compound for hERG current change (%, negative = inhibition) at 10uM at or above -40%: Cc1cc(S(=O)(=O)Nc2ccc(C(=O)NCC3(N(C)C)CCCCC3)cc2)ccc1F
Result block: criterion not met

Query block: Identify whether the reported hERG current change (%, negative = inhibition) at 10uM of the following compound is -40% or greater: O=C(CSc1nccn1-c1ccc(Cl)cc1)N1CCCc2ccccc21
Result block: criterion met

Query block: Does CN(C)C1(CNC(=O)c2ccc(NS(=O)(=O)c3ccc(Cl)c(Cl)c3)cc2)CCCCC1 have a reported hERG current change (%, negative = inhibition) at 10uM of at least -40%?
Result block: criterion not met

Query block: Exam item: decide whether the reported hERG current change (%, negative = inhibition) at 10uM for CCOC(=O)c1ccc2nc(NC(NC(C)=O)(C(=O)OC)C(F)(F)F)sc2c1 (stereo not drawn) is at least -40%.
Result block: criterion met

Query block: Hi, just wondering whether NS(=O)(=O)c1ccc(CCNC(=O)CSc2nc3ccccc3c(=O)n2CCC(=O)N2CCCCC2)cc1 shows hERG current change (%, negative = inhibition) at 10uM of -40% or higher.
Result block: criterion met

Query block: Determine whether this compound has hERG current change (%, negative = inhibition) at 10uM no lower than -40%: Cc1ccc(NS(=O)(=O)c2cccc(C(=O)NCC3(N(C)C)CCCCC3)c2)cc1
Result block: criterion met

Query block: Decide: hERG current change (%, negative = inhibition) at 10uM of CN(C)C1(CNC(=O)c2cccc(S(=O)(=O)Nc3ccc(Br)cc3)c2)CCCCC1 >= -40%?
Result block: criterion not met

Query block: I'd appreciate it if you could say whether CCOc1ccc(NS(=O)(=O)c2ccc(C(=O)NCC3(N(C)C)CCCCC3)cc2)cc1 has hERG current change (%, negative = inhibition) at 10uM at least equal to -40%.
Result block: criterion met

Query block: Hi team, for Fc1ccc(-c2cc(-c3nnc4n3CCCCC4)c3ccccc3n2)cc1 , is the recorded hERG current change (%, negative = inhibition) at 10uM at or above -40%?
Result block: criterion not met

Query block: Is the recorded value of hERG current change (%, negative = inhibition) at 10uM equal to or greater than -40% for this compound? CN(C)C1(CNC(=O)Nc2ccccc2)CCCCC1
Result block: criterion met

Query block: Determine whether measured hERG current change (%, negative = inhibition) at 10uM meets or exceeds -40% for Cc1cc(C)c(NC(=O)c2cccc3c2C(=O)N(C2CCCCC2)C3)c(C)c1
Result block: criterion met

Query block: Is hERG current change (%, negative = inhibition) at 10uM for CC(=O)NC12CC3CC(C)(C1)CC(NC(C)=O)(C3)C2 at or above -40%?
Result block: criterion met

Query block: Given the entry O=c1c2ccccc2nc2n1CCCCC2 , answer whether its hERG current change (%, negative = inhibition) at 10uM meets or surpasses -40%.
Result block: criterion met

Query block: Does hERG current change (%, negative = inhibition) at 10uM meet or surpass -40% for Cc1ccc(CSc2nn3c(=O)c(C)nnc3s2)cc1 ?
Result block: criterion met

Query block: # check: hERG current change (%, negative = inhibition) at 10uM of Cc1ccc(Cn2nnc3c(=O)n(CC(=O)c4ccccc4)cnc32)cc1 is greater than or equal to -40%
Result block: criterion met

Query block: Item COc1ccc(-n2c(Cc3cccn3C)nnc2SCC(=O)Nc2cccc(F)c2)cc1 with hERG current change (%, negative = inhibition) at 10uM of -40% or above?
Result block: criterion not met

Query block: Could you tell me if the measured hERG current change (%, negative = inhibition) at 10uM of CCOc1ccc(NC(=O)CSc2nc3ccccc3c(=O)n2CCCC(=O)N2CCCC2)cc1 reaches -40% or more?
Result block: criterion met

Query block: Could you verify whether the entry CCC1(C(=O)OC)NC(c2ccco2)C2C(=O)N(c3ccc(F)cc3)C(=O)C21 (stereo not drawn) shows hERG current change (%, negative = inhibition) at 10uM of no less than -40%?
Result block: criterion met

Query block: Decide: hERG current change (%, negative = inhibition) at 10uM of N=c1c2ccccc2nc2n1CCCCCCCCCCC2 >= -40%?
Result block: criterion not met

Query block: Determine whether measured hERG current change (%, negative = inhibition) at 10uM meets or exceeds -40% for CCc1ccccc1Nc1cc(C(=O)NCc2ccccn2)c2ccccc2n1
Result block: criterion not met

Query block: Evaluate Clc1ccc(-c2cc(-c3nnc4n3CCCCC4)c3ccccc3n2)cc1 : hERG current change (%, negative = inhibition) at 10uM at minimum -40%?
Result block: criterion not met

Query block: Say whether O=c1c2ccccc2nc2n1CCC2 shows hERG current change (%, negative = inhibition) at 10uM of -40% or more.
Result block: criterion met

Query block: Determine whether measured hERG current change (%, negative = inhibition) at 10uM meets or exceeds -40% for CCOC(=O)COc1ccc(S(=O)(=O)NCc2ccco2)cc1
Result block: criterion met

Query block: Given COc1ccc(NC(=O)CSc2nc3ccccc3c(=O)n2C)cc1 , state whether its hERG current change (%, negative = inhibition) at 10uM is at least -40%.
Result block: criterion met

Query block: Is it the case that Cc1ccc(CSc2nc3ccccc3c(=O)n2CCCC(=O)NCc2ccco2)cc1 has hERG current change (%, negative = inhibition) at 10uM reaching or exceeding -40%?
Result block: criterion met

Query block: Check if hERG current change (%, negative = inhibition) at 10uM >= -40% (inclusive). Item: O=C(CSc1ncnc2[nH]ncc12)Nc1nc(-c2ccc(F)c(F)c2)cs1
Result block: criterion met

Query block: Can CC1(C)CC(=O)C(CC2=C(N)CC(C)(C)CC2=O)=C(N)C1 be said to have hERG current change (%, negative = inhibition) at 10uM at or above -40%?
Result block: criterion met

Query block: Check the entry COc1ccc(NC(=O)CSc2nnc(CNC(=O)COc3ccc(Cl)cc3)o2)c(OC)c1 : does hERG current change (%, negative = inhibition) at 10uM equal or exceed -40%?
Result block: criterion met

Query block: Is it the case that CS(=O)(=O)NNC(=O)Cn1nnc(-c2ccc(OCc3ccccc3Cl)cc2)n1 has hERG current change (%, negative = inhibition) at 10uM reaching or exceeding -40%?
Result block: criterion met

Query block: Is reported hERG current change (%, negative = inhibition) at 10uM greater than or equal to -40% here: COc1ccc(Cl)cc1NC(=O)CSc1nnc(COc2ccccc2)n1C
Result block: criterion not met

Query block: Does the reported hERG current change (%, negative = inhibition) at 10uM for CCC1CCCCN1Cc1ccc(CNC(=O)CCc2nnc3ccc(N4CCCCC4)nn23)o1 (stereo not drawn) fall at or above the -40% mark?
Result block: criterion met

Query block: Hi, just wondering whether O=C(NCc1ccccn1)c1cc(-c2ccccc2)nc2ccccc12 shows hERG current change (%, negative = inhibition) at 10uM of -40% or higher.
Result block: criterion met

Query block: Please tell me: is the compound c1ccc2c(-c3nnc4n3CCCCC4)cc(-c3ccncc3)nc2c1 at or over -40% in terms of hERG current change (%, negative = inhibition) at 10uM?
Result block: criterion not met

Query block: Is the recorded value of hERG current change (%, negative = inhibition) at 10uM equal to or greater than -40% for this compound? COc1ccc(Nc2cc(C(=O)NCc3ccccn3)c3ccccc3n2)c(OC)c1
Result block: criterion met

Query block: Exam item: decide whether the reported hERG current change (%, negative = inhibition) at 10uM for CCc1nc(SCc2ccccc2C#N)n[nH]1 is at least -40%.
Result block: criterion met
